Tested on: adult female Sprague-Dawley rats
METHOD_NOTES: rat infusion study: pedal withdrawal reflex PWR = 1 (analgesic effect)
Type: in vivo
APPLIED_CONDITIONS: ratio compound/ketamine
MEASURED_METRIC: PWR = 1 Dose, head-to-head ratio to ketamine

{"COMPOUND": "CC(C)OC(=O)CCCCNC1(c2ccccc2Cl)CCCCC1=O.Cl (racemic) [rac-C4iPr]", "NUMERIC_RESULT": 1.73}
{"COMPOUND": "CC(C)OC(=O)CCCNC1(c2ccccc2Cl)CCCCC1=O.Cl (racemic) [rac-C3iPr]", "NUMERIC_RESULT": 2.36}
{"COMPOUND": "CCOC(=O)CCNC1(c2ccccc2Cl)CCCCC1=O.Cl (racemic) [rac-C2Et]", "NUMERIC_RESULT": 1.45}
{"COMPOUND": "COC(=O)CCCCNC1(c2ccccc2Cl)CCCCC1=O.Cl (racemic) [rac-C4Me]", "NUMERIC_RESULT": 2.00}
{"COMPOUND": "CCOC(=O)CCCN(C)C1(c2ccccc2Cl)CCCCC1=O.Cl (stereo not drawn) [compound 20]", "NUMERIC_RESULT": 6.76}
{"COMPOUND": "CC(C)OC(=O)CCN[C@@]1(c2ccccc2Cl)CCCCC1=O.Cl [(R)-C2iPr]", "NUMERIC_RESULT": 3.15}
{"COMPOUND": "CCCOC(=O)CCNC1(c2ccccc2Cl)CCCCC1=O.Cl (racemic) [rac-C2nPr]", "NUMERIC_RESULT": 6.48}
{"COMPOUND": "CCCOC(=O)CCCCNC1(c2ccccc2Cl)CCCCC1=O.Cl (racemic) [rac-C4nPr]", "NUMERIC_RESULT": 3.19}
{"COMPOUND": "CCOC(=O)CCCCNC1(c2ccccc2Cl)CCCCC1=O.Cl (racemic) [rac-C4Et]", "NUMERIC_RESULT": 2.48}
